target_of_assay: Endothelial lipase (EL) (Homo sapiens)
Construct: HT-1080 cells that were transformed using RAGE technology (Athersys) to overexpress endogenous EL; endogenous in cells; conditioned medium used
Sequence (Q9Y5X9 21-500): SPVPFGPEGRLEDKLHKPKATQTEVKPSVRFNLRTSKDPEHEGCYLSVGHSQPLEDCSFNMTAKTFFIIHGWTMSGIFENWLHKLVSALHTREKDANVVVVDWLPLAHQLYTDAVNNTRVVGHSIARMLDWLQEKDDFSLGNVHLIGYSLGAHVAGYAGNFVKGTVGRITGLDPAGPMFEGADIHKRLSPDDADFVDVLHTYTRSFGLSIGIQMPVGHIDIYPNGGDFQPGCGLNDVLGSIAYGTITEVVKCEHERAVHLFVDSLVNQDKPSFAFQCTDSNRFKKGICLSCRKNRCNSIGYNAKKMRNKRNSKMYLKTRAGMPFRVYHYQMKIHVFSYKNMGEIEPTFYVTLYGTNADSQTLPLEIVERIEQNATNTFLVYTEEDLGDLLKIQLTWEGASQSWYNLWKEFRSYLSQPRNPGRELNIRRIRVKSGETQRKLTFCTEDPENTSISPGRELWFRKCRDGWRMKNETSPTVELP
assay_explanation: Endothelial lipase (EL) enzymatic assay, fluorescent substrate A10070 in DMPG vesicles
Assay type: biochemical
condition_summary: EL from conditioned media of HT-1080 cells; compound preincubated 30 min at 37° C; read-out: EL IC50
quantity_measured: IC50 (nM)
Response body: numeric value in nM, unit text excluded.

Below: 7 molecules and their reported IC50.
{"molecule": "CC(O)CCNC(=O)Cc1nnc(C(c2nc3ccc(-c4ccc(C(=O)N5CCOCC5)cc4)cc3s2)S(C)(=O)=O)o1 (centres unmarked)", "IC50, nM": 10}
{"molecule": "COCc1ccc(-c2ccc3nc(C(c4nnc(CNS(N)(=O)=O)o4)S(=O)(=O)Cc4cccc(F)c4)sc3c2)cc1 (centres unmarked)", "IC50, nM": 1}
{"molecule": "CS(=O)(=O)C(c1nnc(CNS(N)(=O)=O)o1)c1nc2ccc(-c3cccc(C(=O)NC4CCC(O)CC4)c3)cc2s1 (centres unmarked)", "IC50, nM": 8}
{"molecule": "CS(=O)(=O)NCc1nnc(C(c2nc3ccc(-c4ccc(C(=O)N5CCOCC5)cc4)cc3s2)S(C)(=O)=O)o1 (centres unmarked)", "IC50, nM": 35}
{"molecule": "CC1(Cc2nnc(C(c3nc4ccc(-c5cccc(C(=O)N6CCC(O)CC6)c5)cc4s3)S(C)(=O)=O)o2)NC(=O)NC1=O (centres unmarked)", "IC50, nM": 2}
{"molecule": "Cn1cc(-c2ccc3nc(C(c4nnc(CNC(=O)OC(C)(C)C)o4)S(C)(=O)=O)sc3c2)cn1 (centres unmarked)", "IC50, nM": 168}
{"molecule": "CN(C)C(=O)O[C@H](C(=O)NCc1nnc(C(c2nc3ccc(-c4ccccc4)cc3s2)S(C)(=O)=O)o1)C(C)(C)C (some centres unmarked)", "IC50, nM": 57}

Please examine the following record next.
Data request, read-out IC50, for C#CCNC(=O)c1cccc(-c2ccc3nc(C(c4nnc(CNS(N)(=O)=O)o4)S(C)(=O)=O)sc3c2)c1 (centres unmarked)
6

----------
Readings of pIC50 for the listed compounds
target_of_assay: hepatic lipase (HL) (Homo sapiens)
Construct: made in house; host or cells: COS cells (conditioned medium, partially purified)
Sequence (P11150 23-499): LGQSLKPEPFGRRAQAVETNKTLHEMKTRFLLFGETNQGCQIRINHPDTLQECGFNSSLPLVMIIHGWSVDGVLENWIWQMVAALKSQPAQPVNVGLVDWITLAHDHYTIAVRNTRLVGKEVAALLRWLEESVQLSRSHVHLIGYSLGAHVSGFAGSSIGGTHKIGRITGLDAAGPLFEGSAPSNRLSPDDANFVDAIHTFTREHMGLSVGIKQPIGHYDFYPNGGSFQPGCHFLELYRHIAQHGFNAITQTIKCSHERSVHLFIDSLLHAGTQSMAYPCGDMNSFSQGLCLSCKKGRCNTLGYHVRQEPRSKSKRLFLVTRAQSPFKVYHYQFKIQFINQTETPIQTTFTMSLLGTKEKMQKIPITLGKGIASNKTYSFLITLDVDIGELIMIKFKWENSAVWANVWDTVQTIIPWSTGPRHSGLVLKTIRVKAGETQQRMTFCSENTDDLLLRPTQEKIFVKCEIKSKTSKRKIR
assay_explanation: Hepatic lipase (HL) enzymatic assay, fluorescent substrate A10070 in DMPG vesicles
Format: biochemical
condition_summary: HL partially purified from conditioned media of COS cells; compound preincubated 30 min at 37° C; read-out: HL IC50
Kindly note that pIC50 refers to -log10 of the concentration in mol/L and answer with the value alone.

{"compound": "COCCS(=O)(=O)C(c1nnc(CNS(N)(=O)=O)o1)c1nc2ccc(-c3cccc(C(=O)N4CCN(C)CC4)c3)cc2s1 (stereo not shown) [Example 200]", "pIC50": 6.70}
{"compound": "CN(C)C(=O)c1ccc(-c2ccc3nc(C(c4nnc(CNS(N)(=O)=O)o4)S(=O)(=O)Cc4ccccc4)sc3c2)cc1Cl (stereo not shown) [Example 146]", "pIC50": 6.41}

I'd like to know its pIC50. The compound in question is CS(=O)(=O)C(c1nnc(CNS(N)(=O)=O)o1)c1nc2ccc(-c3cccc(C(=O)N4CC(O)C4)c3)cc2s1 (stereo not shown) [Example 252]
7.66
